test system: NCI-H460 lung; assay: NCI tumour cell line growth inhibition, 48 h
Examples of compounds with documented TGI follow.

[
  {
    "COMPOUND": "COc1ccc(-c2[nH]ncc2-c2cc3c(c(OC)c2)OCC(=O)N3)cc1",
    "TGI": "4.79 µM"
  },
  {
    "COMPOUND": "O=P([O-])(O)OP(=O)([O-])O.[NH-][C@H]1CCCC[C@@H]1[NH-].[OH-].[OH-].[Pt+4]",
    "TGI": "> 100 µM"
  },
  {
    "COMPOUND": "CN(C)c1ccc2c(c1)C(=O)N(OS(=O)(=O)c1ccc([N+](=O)[O-])cc1)C2=O",
    "TGI": "> 100 µM"
  },
  {
    "COMPOUND": "COc1cc(/C(Cl)=C/C=C/C(=O)c2c(C)[n+]([O-])c3ccc(Cl)cc3[n+]2[O-])cc(OC)c1OC",
    "TGI": "> 50 µM"
  },
  {
    "COMPOUND": "CCC(C)CN1C(=O)NC(C)(Cc2ccccc2)C1=O (stereo unspecified)",
    "TGI": "> 100 µM"
  }
]

Item: `Nc1nc2c(=O)c3ccccc3sc2s1` | TGI: > 100 µM

TGI recorded for this compound, CCCCNC1CCC2(SCCS2)c2[nH]c3ccccc3c21 (stereo unspecified) , is > 100 µM

Value of TGI reported for the compound `O=C(O)[C@H]1[C@@H](C2CCCCC2)O[C@@H](C2CCCCC2)O[C@H]1C(F)(F)F` is 48.4 µM

The value of TGI measured for the compound `COC(=O)c1cn(CCCC(=O)O)nn1` turned out to be > 100 µM
